Origin of values: ChEMBL document CHEMBL5518235

# tested-system: UniProt Q9HBX9
# Sequence (Q9HBX9 whole entry): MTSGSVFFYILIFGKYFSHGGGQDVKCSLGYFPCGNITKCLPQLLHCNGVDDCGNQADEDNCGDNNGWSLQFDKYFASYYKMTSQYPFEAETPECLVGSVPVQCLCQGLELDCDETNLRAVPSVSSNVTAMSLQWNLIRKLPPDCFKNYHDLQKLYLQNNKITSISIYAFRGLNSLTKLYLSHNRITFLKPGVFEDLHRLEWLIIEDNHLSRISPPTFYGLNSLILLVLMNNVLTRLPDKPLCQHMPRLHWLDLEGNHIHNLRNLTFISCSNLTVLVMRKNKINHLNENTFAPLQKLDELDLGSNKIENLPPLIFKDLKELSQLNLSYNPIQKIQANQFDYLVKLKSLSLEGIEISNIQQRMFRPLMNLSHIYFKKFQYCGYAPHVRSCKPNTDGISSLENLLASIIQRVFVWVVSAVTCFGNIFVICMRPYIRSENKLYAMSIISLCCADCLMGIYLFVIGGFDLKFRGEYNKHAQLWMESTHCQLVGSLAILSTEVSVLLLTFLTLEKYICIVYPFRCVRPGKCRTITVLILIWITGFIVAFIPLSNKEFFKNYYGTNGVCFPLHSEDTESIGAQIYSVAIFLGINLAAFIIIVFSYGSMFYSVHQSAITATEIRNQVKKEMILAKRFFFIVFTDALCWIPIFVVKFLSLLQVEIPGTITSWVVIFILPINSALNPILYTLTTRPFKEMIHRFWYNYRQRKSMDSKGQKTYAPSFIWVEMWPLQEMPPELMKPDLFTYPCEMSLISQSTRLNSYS
# method-summary: Agonist activity at human RXFP1 expressed in T-Rex-CHO-K1 cells assessed as stimulation of cAMP production by measuring unbound concentration incubated for 45 mins by HTRF assay
outcome-measure: EC50

The molecule COc1cc(F)c(O[C@H]2CC[C@@](C)(C(=O)O)CC2)cc1C(=O)N[C@@H]1[C@H]2CC[C@H](C2)[C@@H]1C(=O)Nc1ccc(F)c(S(F)(F)(F)(F)F)c1 showed EC50 equal to < 0.0316 nM

* * *

# method-summary: Metabolic stability in human liver microsomes assessed as unbound fraction at 1 uM incubated for 4 hrs by equilibrium dialysis based LC-MS/MS analysis
# Type: ADME, Microsome
outcome-measure: fraction unbound at 4 h, 1 µM

The compound CC(C)Oc1ccccc1C(=O)Nc1ccccc1C(=O)Nc1cccc(S(=O)(=O)C(F)(F)F)c1 showed fraction unbound at 4 h, 1 µM equal to 2e-05

* * *

# tested-system: Leucine-rich repeat-containing G-protein coupled receptor 4 (Homo sapiens, UniProt Q9BXB1)
# Sequence (Q9BXB1 whole entry): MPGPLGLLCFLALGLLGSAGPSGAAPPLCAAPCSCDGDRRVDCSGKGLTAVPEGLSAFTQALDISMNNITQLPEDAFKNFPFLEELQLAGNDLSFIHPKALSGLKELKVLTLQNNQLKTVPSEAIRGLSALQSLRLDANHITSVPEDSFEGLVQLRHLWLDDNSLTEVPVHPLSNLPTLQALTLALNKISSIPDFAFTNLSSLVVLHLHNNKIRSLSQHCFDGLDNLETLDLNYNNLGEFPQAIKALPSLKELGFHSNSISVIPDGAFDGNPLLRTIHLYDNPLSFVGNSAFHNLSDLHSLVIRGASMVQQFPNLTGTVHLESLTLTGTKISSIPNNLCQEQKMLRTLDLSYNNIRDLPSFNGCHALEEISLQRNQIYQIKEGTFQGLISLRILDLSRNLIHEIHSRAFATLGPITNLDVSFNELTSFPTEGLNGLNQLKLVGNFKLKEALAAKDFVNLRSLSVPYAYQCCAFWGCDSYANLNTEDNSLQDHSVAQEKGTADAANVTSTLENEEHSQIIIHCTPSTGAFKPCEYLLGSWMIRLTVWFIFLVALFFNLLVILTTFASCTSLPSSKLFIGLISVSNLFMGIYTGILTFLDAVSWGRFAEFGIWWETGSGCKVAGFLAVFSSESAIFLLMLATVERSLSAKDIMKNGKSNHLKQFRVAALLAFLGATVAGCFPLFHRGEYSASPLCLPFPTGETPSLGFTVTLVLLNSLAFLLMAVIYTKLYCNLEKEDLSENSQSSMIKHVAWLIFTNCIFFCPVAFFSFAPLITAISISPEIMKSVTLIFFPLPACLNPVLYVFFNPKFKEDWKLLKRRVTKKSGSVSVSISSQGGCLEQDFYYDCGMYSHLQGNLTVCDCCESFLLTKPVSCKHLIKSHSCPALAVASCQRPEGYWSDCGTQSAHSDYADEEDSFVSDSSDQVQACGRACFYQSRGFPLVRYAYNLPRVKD
# method-summary: Agonist activity at LGR4 (unknown origin) by arrestin technology based assay
outcome-measure: pEC50
Answers are plain numbers, as −log10 of the molar value.

The molecule COc1cc(F)c(O[C@H]2CC[C@@](C)(C(=O)O)CC2)cc1C(=O)N[C@@H]1[C@H]2CC[C@H](C2)[C@@H]1C(=O)Nc1ccc(F)c(S(F)(F)(F)(F)F)c1 showed pEC50 equal to 4.80

* * *

I'd be grateful if you could share measured Emax for these entries.
# tested-system: Relaxin receptor 1 (Homo sapiens)
# method-summary: Agonist activity at human RXFP1 expressed in T-Rex-CHO-K1 cells assessed as stimulation of cAMP production by measuring maximal efficacy at 50 uM incubated for 45 mins by HTRF assay relative to control
# Type: functional, cell-based
# settings: filed as agonist
Answers are plain numbers, in %.

Solved cases below.
The molecule COc1cc(F)c(O[C@H]2CC[C@@H](C(=O)O)CC2)cc1C(=O)N[C@@H]1[C@H]2CC[C@H](C2)[C@@H]1C(=O)Nc1cccc(C(F)F)c1 showed Emax equal to 104

The molecule COc1cnc(-c2ccc(C(=O)O)cc2)cc1C(=O)N[C@H]1[C@@H](C(=O)Nc2cccc(S(=O)(=O)C(F)(F)F)c2)[C@@H]2C=C[C@H]1C2 (racemic) showed Emax equal to 117

Lab note: each molecule below needs its Emax filled in.
1. COc1cc(F)c(O[C@H]2CC[C@@H](C(=O)O)CC2)cc1C(=O)N[C@H]1[C@@H](C(=O)Nc2ccc(F)c(C(F)(F)F)c2)[C@@H]2C=C[C@H]1C2
2. COc1cc(F)c(-c2cccc(C(=O)O)c2)cc1C(=O)N[C@H]1[C@@H](C(=O)Nc2cccc(S(=O)(=O)C(F)(F)F)c2)[C@@H]2C=C[C@H]1C2
3. COc1cc(F)c(-c2ccc(C(=O)O)cc2)cc1C(=O)N[C@H]1[C@@H](C(=O)Nc2cccc(S(=O)(=O)C(F)(F)F)c2)[C@@H]2C=C[C@H]1C2
4. COc1cc(F)c(O[C@H]2CC[C@@](C)(C(=O)O)CC2)cc1C(=O)N[C@H]1[C@@H]2CC[C@@H](C2)[C@H]1C(=O)Nc1ccc(F)c(S(F)(F)(F)(F)F)c1

[124, 103, 99, 103]

* * *

# tested-system: Relaxin receptor 1 (Homo sapiens)
# Sequence (whole entry): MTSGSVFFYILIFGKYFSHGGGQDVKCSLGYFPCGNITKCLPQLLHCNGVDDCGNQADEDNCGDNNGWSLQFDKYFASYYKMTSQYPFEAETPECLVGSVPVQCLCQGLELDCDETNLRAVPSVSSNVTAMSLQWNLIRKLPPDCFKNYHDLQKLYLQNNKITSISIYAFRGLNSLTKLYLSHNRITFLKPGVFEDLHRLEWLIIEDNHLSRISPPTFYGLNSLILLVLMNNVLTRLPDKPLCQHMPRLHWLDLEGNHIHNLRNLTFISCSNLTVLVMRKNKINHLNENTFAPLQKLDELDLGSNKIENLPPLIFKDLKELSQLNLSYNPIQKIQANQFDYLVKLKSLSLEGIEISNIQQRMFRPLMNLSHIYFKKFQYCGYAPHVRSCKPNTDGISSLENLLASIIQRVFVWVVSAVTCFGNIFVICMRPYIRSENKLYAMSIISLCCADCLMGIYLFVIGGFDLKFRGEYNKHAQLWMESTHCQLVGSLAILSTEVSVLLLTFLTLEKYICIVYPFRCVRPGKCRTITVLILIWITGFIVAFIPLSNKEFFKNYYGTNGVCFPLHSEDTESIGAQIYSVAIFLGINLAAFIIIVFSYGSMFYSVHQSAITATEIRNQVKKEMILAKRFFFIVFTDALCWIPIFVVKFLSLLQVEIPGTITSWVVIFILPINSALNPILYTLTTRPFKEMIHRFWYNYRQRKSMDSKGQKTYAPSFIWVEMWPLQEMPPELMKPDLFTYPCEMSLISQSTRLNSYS
# method-summary: Agonist activity at human RXFP1 expressed in T-Rex-CHO-K1 cells assessed as stimulation of cAMP production by measuring maximal efficacy at 50 uM incubated for 45 mins by HTRF assay relative to control
# Format: functional, cell-based
# settings: filed as agonist
I'd be grateful if you could share measured Emax for these entries.
Answers are plain numbers, in %.

Solved cases below.
The compound COc1cc(F)c(O[C@H]2CC[C@@H](C(=O)O)CC2)cc1C(=O)N[C@@H]1[C@H](C(=O)Nc2ccc(F)c(C(F)(F)F)c2)[C@H]2C=C[C@@H]1C2 showed Emax equal to 107

The compound COc1cc(F)ccc1C(=O)N[C@@H]1[C@H](C(=O)Nc2cccc(S(=O)(=O)C(F)(F)F)c2)[C@H]2C=C[C@@H]1C2 (racemic) showed Emax equal to 113

The compound COc1cc(F)c(O[C@H]2CC[C@@H](C(=O)O)CC2)cc1C(=O)N[C@@H]1[C@H]2CC[C@H](C2)[C@@H]1C(=O)Nc1ccccc1 showed Emax equal to 98

Lab note: each compound below needs its Emax filled in.
1. COc1cc(F)c(-c2ccccc2)cc1C(=O)N[C@@H]1[C@H](C(=O)Nc2cccc(S(=O)(=O)C(F)(F)F)c2)[C@H]2C=C[C@@H]1C2 (racemic)
2. COc1cc(F)c(O[C@H]2CC[C@@H](C(=O)O)CC2)cc1C(=O)N[C@@H]1[C@H]2CC[C@H](C2)[C@@H]1C(=O)Nc1ccncc1
3. COc1cc(F)c(-c2ccc(C[C@H](C(=O)O)N(C)C)cc2)cc1C(=O)N[C@@H]1[C@H]2CC[C@H](C2)[C@@H]1C(=O)Nc1cccc(S(=O)(=O)C(F)(F)F)c1

93
42
105
